System: SGK3
CONDITION_NOTES: concentration: 1 μM, replicates: in singlicate; n = 1;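 note: KINOMEscan kinase panel screen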
MEASURED_QUANTITY: %Inh (%)
Report the value in % with no unit label.

O=C(O)C(F)(F)F.O=c1[nH]ccc2nc(N[C@@H]3CCNC3)nc(Nc3ccc4c(c3)S(=O)(=O)CC4)c12
98.6

[ask] So what's the measured %Inh for this one? CC(C)c1nc(-c2ccc(F)c(NS(=O)(=O)c3c(F)cccc3F)c2)c(-c2ccnc(Nc3ccc(N4CCOCC4)nc3)n2)s1
[reply] 20

[ask] So what's the measured %Inh for this one? Cl.Cl.NC(CNC(=O)c1cc(Br)c(-c2ccnc3[nH]ccc23)s1)c1ccccc1 (centres unmarked)
[reply] 66

[ask] So what's the measured %Inh for this one? O=C(Nc1n[nH]c2nc(-c3ccccc3)ccc12)C1CC1
[reply] 47

###

Test system: HIPK4
CONDITION_NOTES: concentration: 1 μM, replicates: in singlicate; n = 1
This section presents compounds with their documented %Inh values.
Reply with the number and its unit after it.

Study these solved cases before continuing.
Cc1nn2c(=O)cc(N3CCO[C@H](C)C3)nc2n1Cc1cccc(Cl)c1Cl
0%
O=C(Nc1n[nH]c2nc(-c3ccccc3)ccc12)C1CC1
8%
COC(=O)Nc1nc2cc(Oc3ccc(NC(=O)Nc4cccc(SC)c4)cc3)ccc2[nH]1.Cl
36%
CN1CCN(Cc2ccc(NC(=O)Nc3ccc(N(C)c4ccnc(Nc5ccc(CS(C)(=O)=O)cc5)n4)cc3)cc2)CC1.Cl
90.9%
COc1cccc(NC(=O)NCCNc2ccnc(Nc3ccc(F)cc3)n2)c1
0%

Continue with the compound presented below.
[ask] So what's the measured %Inh for this one? O=C1NC(=O)C(c2ccccc2Cl)=C1Nc1cccc(Cl)c1
[reply] 3%

###

Test system: SRC
CONDITION_NOTES: concentration: 1 μM, replicates: in singlicate; n = 1
%Inh under 20% gets 1, anything at or over 20% gets 0.

[ask] Problem: For the compound CC(C)c1nc(-c2cccc(NS(=O)(=O)c3c(F)cccc3F)c2)c(-c2ccnc(Nc3ccc(N4CCOCC4)nc3)n2)s1.Cl , is %Inh under 20%?
[reply] 0

[ask] Problem: For the compound CC(=O)Nc1cn2nc(Oc3cccc(NC(=O)c4cccc(C(F)(F)F)c4)c3)ccc2n1 , is %Inh under 20%?
[reply] 0

[ask] Problem: For the compound CCOc1nccc(-c2c(-c3ccc(F)cc3)ncn2C2CCNCC2)n1 , is %Inh under 20%?
[reply] 1

[ask] Problem: For the compound COc1cccc(-c2nc(-c3ccccc3)[nH]c2-c2ccncc2)c1 , is %Inh under 20%?
[reply] 0

[ask] Problem: For the compound COc1ccc(NC(=O)c2ccoc2)cc1-c1ccc(C(=O)NCC2CC2)cc1 , is %Inh under 20%?
[reply] 1

[ask] Problem: For the compound Cc1ccc(C)c(NC(=O)Nc2ccc(C)c(-c3ccc(C(=O)Nc4ccncc4)cc3)c2)c1 , is %Inh under 20%?
[reply] 1

###

This section presents molecules with their documented %Inh values.
System: MET
CONDITION_NOTES: concentration: 1 μM, replicates: in singlicate; n = 1
Report the value in % with no unit label.

Study these solved cases before continuing.
O=C(Nc1n[nH]c2nc(-c3ccccc3O)ccc12)C1CC1
0
CN1CCN(Cc2ccc(NC(=O)Nc3ccc(N(C)c4ccnc(Nc5ccc(CS(C)(=O)=O)cc5)n4)cc3)cc2)CC1.Cl
67
Cc1ccc(O)cc1Nc1ccnc2ccc(C(C)(C)C)cc12
0
Fc1cc(Cl)ccc1Nc1ccnc2cc(-c3ccc(CN4CCSCC4)o3)ccc12
28

[ask] So what's the measured %Inh for this one? Cn1cc(-c2ccc3c(c2)CCN3C(=O)Cc2cc(F)cc(F)c2F)c2c(N)ncnc21
[reply] 68

[ask] So what's the measured %Inh for this one? Cc1ccc(O)cc1Nc1ccnc2cc(-c3ccc(CN4CCCCC4)o3)ccc12
[reply] 0

[ask] So what's the measured %Inh for this one? CC(C)NCC(Cc1ccccc1)NC(=O)c1cc(Br)c(-c2ccnc3[nH]ccc23)s1.Cl.Cl (centres unmarked)
[reply] 17

[ask] So what's the measured %Inh for this one? N#CC1(c2cccc(C(=O)Nc3cccc(Oc4ccc5nc(NC(=O)C6CC6)sc5n4)c3)c2)CC1
[reply] 2
